Reported pIC50 values are given for each entry in this list.
Molecular target: M-phase inducer phosphatase 2 (Homo sapiens, UniProt P30305)
Sequence (P30305 whole entry): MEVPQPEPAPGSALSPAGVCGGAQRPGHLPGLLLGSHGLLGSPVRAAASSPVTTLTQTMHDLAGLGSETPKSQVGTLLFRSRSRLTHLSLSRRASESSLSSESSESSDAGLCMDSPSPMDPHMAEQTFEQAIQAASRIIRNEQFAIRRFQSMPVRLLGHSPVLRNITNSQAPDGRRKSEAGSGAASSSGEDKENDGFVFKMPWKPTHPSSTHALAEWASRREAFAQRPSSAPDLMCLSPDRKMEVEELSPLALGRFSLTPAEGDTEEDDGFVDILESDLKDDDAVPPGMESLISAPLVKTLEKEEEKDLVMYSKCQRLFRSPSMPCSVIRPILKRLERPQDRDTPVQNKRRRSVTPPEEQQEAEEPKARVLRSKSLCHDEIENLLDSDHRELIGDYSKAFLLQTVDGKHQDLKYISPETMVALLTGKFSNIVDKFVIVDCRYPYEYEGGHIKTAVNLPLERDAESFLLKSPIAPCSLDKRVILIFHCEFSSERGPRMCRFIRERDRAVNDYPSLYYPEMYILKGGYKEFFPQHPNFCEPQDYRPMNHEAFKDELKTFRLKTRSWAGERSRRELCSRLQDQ
Assay: Inhibition of Cdc25B (unknown origin) phosphatase activity assessed as fluorescence by BMG plate reader in the absence of detergent
pIC50: −log10 of the molar value.

Compound	Comparative Sign	pIC50
O=C(Nc1cccc(-c2csc(-c3ccccc3)n2)c1)c1ccco1	<	4.00
CCOc1ccc(-c2nc(-c3ccc4[nH]c(=O)[nH]c4c3)cs2)cc1	=	5.05
COc1ccc(-c2nc(-c3ccc4c(c3)CCN4S(C)(=O)=O)cs2)cc1	=	4.76
COc1ccccc1-c1nc(-c2ccc3c(c2)CCN3S(C)(=O)=O)cs1	=	5.00
CCOc1ccc(-c2nc(-c3ccc4c(c3)CC(=O)N4C)cs2)cc1	=	4.64
CCOc1ccc(-c2nc(-c3ccc4ccccc4c3)cs2)cc1	=	4.87
Cc1cccc(-c2nc(-c3ccc4c(c3)CCN4S(C)(=O)=O)cs2)c1	=	4.72
COc1ccc(-c2csc(-c3cccc(NC(=O)C4CC4)c3)n2)cc1	=	4.83
COc1ccc(-c2nc(-c3cc(C)n(CC4CCCO4)c3C)cs2)cc1 (centres undefined)	=	4.92
